- testMethodNotes: protein stability index of a GFP-peptide fusion (yeast GPS) (PSI 1-4); higher = more stable; sorted into four equal gates, so the index is relative within each strain
- setupConditions: pdr5∆

[
  {
    "sequence": "FEQCCKEKKELQMRLKE [YIL149C/MLP2]",
    "protein stability index": 3.11
  },
  {
    "sequence": "ESNRQSVIVDSKVTVPP [ESC2]",
    "protein stability index": 2.87
  },
  {
    "sequence": "YSWLLFEASCMEGQKLD [YJR042W/NUP85]",
    "protein stability index": 1.36
  },
  {
    "sequence": "KILGKGRIPNVPVIVKA [RPL28]",
    "protein stability index": 1.87
  },
  {
    "sequence": "VNGLLQVLMDINTLNGG [GAL11]",
    "protein stability index": 3.03
  },
  {
    "sequence": "FIMASVGKYDKAIELLE [SRP72]",
    "protein stability index": 2.38
  },
  {
    "sequence": "KKHGKTDYFLPKNYSLH [YJL039C/NUP192]",
    "protein stability index": 2.63
  },
  {
    "sequence": "DVVYALKRQGRTLYGFG [HHF1]",
    "protein stability index": 2.8
  },
  {
    "sequence": "IQSAESIKSQKEEISDQ [SWI3]",
    "protein stability index": 3.08
  },
  {
    "sequence": "FTDENTIVLSLNVKCTR [RPC40]",
    "protein stability index": 3.61
  },
  {
    "sequence": "KRLGPKRANNIRKFFGL [RPS6A]",
    "protein stability index": 3.56
  },
  {
    "sequence": "ILEEGSSGMGAFGGSGG [RPN10]",
    "protein stability index": 3
  },
  {
    "sequence": "VDIKGEDLHEKNDSAEV [NUT1]",
    "protein stability index": 3.37
  },
  {
    "sequence": "HKSLIRSISWAPSIGRW [YGL100W/SEH1]",
    "protein stability index": 3.1
  },
  {
    "sequence": "RQQKLLEDQQRQQKLLL [SWI1]",
    "protein stability index": 3.05
  },
  {
    "sequence": "DLSYNFNVHEVPRAALE [YMR129W/POM152]",
    "protein stability index": 3.04
  },
  {
    "sequence": "MWSVARAGQRGYHSRTS [RPL3]",
    "protein stability index": 3.14
  },
  {
    "sequence": "SDIESLEALMDILLCYQ [SRB8]",
    "protein stability index": 2.74
  },
  {
    "sequence": "QYATVSKTHKTVSRAYG [RPL34A]",
    "protein stability index": 2.31
  },
  {
    "sequence": "SEEKIRDYSKEILGINL [SIR4]",
    "protein stability index": 3.03
  },
  {
    "sequence": "LHKEQWQSGLKMYDYEE [RPN11]",
    "protein stability index": 2.8
  },
  {
    "sequence": "QKVQGESHIDSRNNTLN [SIR4]",
    "protein stability index": 3.1
  },
  {
    "sequence": "CCINAAFLALVDAGIAL [RRP46]",
    "protein stability index": 2.88
  },
  {
    "sequence": "LTYKSELSKSRALQENG [YMR153W/NUP53]",
    "protein stability index": 1.95
  },
  {
    "sequence": "NTNTENENRNTGAGVDV [SNF11]",
    "protein stability index": 2.98
  },
  {
    "sequence": "SNSALFRAVGEGNAQLV [FAS1]",
    "protein stability index": 2.37
  },
  {
    "sequence": "MGKRVDFSARTVISGDP [RPO21]",
    "protein stability index": 3.27
  },
  {
    "sequence": "ADYWTHAYRDVLAQYHE [SNF6]",
    "protein stability index": 3.23
  },
  {
    "sequence": "KMVGLRGFNNQIMQLKK [SNF2]",
    "protein stability index": 3.21
  },
  {
    "sequence": "PHDLIIGTADIFIRQLK [BRR2]",
    "protein stability index": 2.51
  },
  {
    "sequence": "CTEAGLLALRERRMQVT [RPT2]",
    "protein stability index": 2.9
  },
  {
    "sequence": "VKADVEKSLLPKIETNV [ISW2]",
    "protein stability index": 3.18
  },
  {
    "sequence": "KEKKELQMRLKESEISH [YIL149C/MLP2]",
    "protein stability index": 2.94
  }
]

* * *

Attribute: protein stability index
- testMethodNotes: protein stability index of a GFP-peptide fusion (yeast GPS) (PSI 1-4); higher = more stable; sorted into four equal gates, so the index is relative within each strain
- setupConditions: doa10∆

[
  {
    "sequence": "KKWPQFYAAVQKNYADP [SIN4]",
    "protein stability index": 1.5
  },
  {
    "sequence": "ITYTPVRHGRAGATTSR [RPS15]",
    "protein stability index": 2.28
  },
  {
    "sequence": "PFDQNLDSNNNNSNSNN [SWI1]",
    "protein stability index": 2.65
  },
  {
    "sequence": "LVHDVVYDFYGRHVATC [YGL100W/SEH1]",
    "protein stability index": 1.46
  },
  {
    "sequence": "VKRRRDMLEHINLAMNE [SRB4]",
    "protein stability index": 1.3
  },
  {
    "sequence": "EAAKPSLSFGSGSAGAN [YJL041W/NSP1]",
    "protein stability index": 2.83
  },
  {
    "sequence": "HITSVPISAVLRGCKFL [GRR1]",
    "protein stability index": 1.77
  },
  {
    "sequence": "SSNIAGTNPLSSDGAYT [SSN2]",
    "protein stability index": 3.04
  },
  {
    "sequence": "LEPGCSVLLHHKTMSIV [RPT2]",
    "protein stability index": 1.39
  },
  {
    "sequence": "GFGLVYNSVAEAKKFEP [RPS24A]",
    "protein stability index": 3.22
  },
  {
    "sequence": "SASFSLKNGDKPHLLKF [RPL6B]",
    "protein stability index": 2.4
  },
  {
    "sequence": "GALKGASDGGLYVPHSE [RPL5]",
    "protein stability index": 1.91
  },
  {
    "sequence": "SFCGFLLYYIPSLELSA [YJR042W/NUP85]",
    "protein stability index": 1.65
  },
  {
    "sequence": "NHVMYTEVSRKSMKYVK [ECM29]",
    "protein stability index": 2.37
  },
  {
    "sequence": "FPKIDSLAQNDCNSALD [RPN5]",
    "protein stability index": 2.52
  },
  {
    "sequence": "KTRVGSVTAQVYKIALR [RPC82]",
    "protein stability index": 1.27
  },
  {
    "sequence": "GINSPLSSVALRSDFYI [YJL039C/NUP192]",
    "protein stability index": 2.45
  },
  {
    "sequence": "NDLIVNYEDLATTQAAS [BRN1]",
    "protein stability index": 2.98
  },
  {
    "sequence": "ANLLFKKEKLKQENSTL [RPC82]",
    "protein stability index": 2.15
  },
  {
    "sequence": "MSASNANDFQLTIVTCK [SRB8]",
    "protein stability index": 2.33
  },
  {
    "sequence": "TLPQPRLNKLNSNGIAM [SMD1]",
    "protein stability index": 2.3
  },
  {
    "sequence": "MAGLSFDNYQRNNFLAE [PUP1]",
    "protein stability index": 3.61
  }
]

* * *

Attribute: protein stability index
- testMethodNotes: protein stability index of a GFP-peptide fusion (yeast GPS) (PSI 1-4); higher = more stable; sorted into four equal gates, so the index is relative within each strain
- setupConditions: pdr5∆
readoutKind: protein stability index

[
  {
    "sequence": "PALVGKLRGDLREAPAD [SNF6]",
    "dataValue": 3.12
  },
  {
    "sequence": "RNFSLAIIDKNTGLTFK [PRE4]",
    "dataValue": 3.07
  },
  {
    "sequence": "SFILSSLEDPQVRKKQI [YDL116W/NUP84]",
    "dataValue": 2.09
  },
  {
    "sequence": "QLYHLEQQKEELTDKLS [SMC1]",
    "dataValue": 3.11
  },
  {
    "sequence": "NKNGNAVCSTATVVSTN [PGD1]",
    "dataValue": 2.83
  },
  {
    "sequence": "VIYRGPEPSHIDQVMMS [RET1]",
    "dataValue": 3.23
  },
  {
    "sequence": "FFPYYVHTIIAGLDEDG [PRE7]",
    "dataValue": 3.31
  },
  {
    "sequence": "RATTYEKLTMVFQDNVY [SIN4]",
    "dataValue": 2.48
  },
  {
    "sequence": "SKMLDAASSQVSIVKLD [SNF12]",
    "dataValue": 2.89
  },
  {
    "sequence": "GNIFSNIGTPSFNMAQI [SNF5]",
    "dataValue": 2.66
  },
  {
    "sequence": "NNKFANKIIPNVGLCIT [RPC25]",
    "dataValue": 3.04
  },
  {
    "sequence": "KLDASKKQQAALTNELN [YIL149C/MLP2]",
    "dataValue": 2.99
  },
  {
    "sequence": "TVVISQKKVPDKLLDPT [SCL1]",
    "dataValue": 2.31
  },
  {
    "sequence": "QSTNLNRSAKNSKNDSA [YCS4]",
    "dataValue": 2.63
  },
  {
    "sequence": "RYPMNLLEFIIDEIAYL [ECM29]",
    "dataValue": 2.89
  },
  {
    "sequence": "EITAKEVYDFTHAVGNN [FAS1]",
    "dataValue": 3.15
  },
  {
    "sequence": "FSIFNYFKMFPASKHDK [RPC34]",
    "dataValue": 1.34
  },
  {
    "sequence": "RGYWGTNLGQPHSLATK [RPS2]",
    "dataValue": 3.18
  },
  {
    "sequence": "ENLMVQRTCLMTVTFLI [YCS4]",
    "dataValue": 1.97
  },
  {
    "sequence": "MSGGKGGKAGSAAKASQ [HTA1]",
    "dataValue": 3.13
  },
  {
    "sequence": "DKLLDPTTVSYIFCISR [SCL1]",
    "dataValue": 3.1
  },
  {
    "sequence": "GQQSVEGKRIAFGFVDR [RPO21]",
    "dataValue": 3.01
  },
  {
    "sequence": "LDEVDAALDLSHTQNIG [SMC2]",
    "dataValue": 3.21
  },
  {
    "sequence": "KEIDPSQTTQLAGMDVE [FAS2]",
    "dataValue": 3.28
  }
]
